These records show IC50 for UniProt P06493.
One number for each entry, in µM.

Previously resolved entries follow.
{"columns": ["structure", "IC50 / µM"],
 "data": [
  ["CC(C)C[C@H](CO)Nc1ccc(C(=O)c2sc(Nc3ccc(N4CCN(C)CC4)cc3)nc2N)cc1[N+](=O)[O-]", 5.2],
  ["CN1CCN(c2ccc(Nc3nc(N)c(C(=O)c4ccc(N5CCCCC5)cc4)s3)cc2)CC1", 20.1],
  ["CN1CCN(c2ccc(Nc3nc(N)c(C(=O)c4ccc5c(c4)OCO5)s3)cc2)CC1", 0.5],
  ["CN1CCN(c2ccc(Nc3nc(N)c(C(=O)c4ccc5c(c4)OCCO5)s3)cc2)CC1", 2.5],
  ["CN1CCN(c2ccc(Nc3nc(N)c(C(=O)c4ccc(N5CCC(O)CC5)c([N+](=O)[O-])c4)s3)cc2)CC1", 3.5],
  ["CN1CCN(c2ccc(Nc3nc(N)c(C(=O)c4ccc(N5CCOCC5)c([N+](=O)[O-])c4)s3)cc2)CC1", 4.3]
]}

Continue with the next molecule.
Form field IC50, entry Nc1nc(Nc2ccc(N3CCN(CCO)CC3)cc2)sc1C(=O)c1ccc(N2CCCC2)cc1 : 5.5

###

Target: human cyclin B-CDK1 (Homo sapiens, UniProt P06493)
Sequence (P06493 whole entry): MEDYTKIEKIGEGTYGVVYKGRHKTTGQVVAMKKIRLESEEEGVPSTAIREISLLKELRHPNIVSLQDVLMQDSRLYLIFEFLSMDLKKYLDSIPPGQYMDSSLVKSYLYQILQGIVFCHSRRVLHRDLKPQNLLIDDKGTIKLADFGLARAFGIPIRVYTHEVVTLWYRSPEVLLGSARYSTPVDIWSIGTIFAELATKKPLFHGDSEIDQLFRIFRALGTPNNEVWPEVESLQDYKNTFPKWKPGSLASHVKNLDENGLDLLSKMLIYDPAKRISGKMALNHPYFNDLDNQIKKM
Sequence (P14635 whole entry partner): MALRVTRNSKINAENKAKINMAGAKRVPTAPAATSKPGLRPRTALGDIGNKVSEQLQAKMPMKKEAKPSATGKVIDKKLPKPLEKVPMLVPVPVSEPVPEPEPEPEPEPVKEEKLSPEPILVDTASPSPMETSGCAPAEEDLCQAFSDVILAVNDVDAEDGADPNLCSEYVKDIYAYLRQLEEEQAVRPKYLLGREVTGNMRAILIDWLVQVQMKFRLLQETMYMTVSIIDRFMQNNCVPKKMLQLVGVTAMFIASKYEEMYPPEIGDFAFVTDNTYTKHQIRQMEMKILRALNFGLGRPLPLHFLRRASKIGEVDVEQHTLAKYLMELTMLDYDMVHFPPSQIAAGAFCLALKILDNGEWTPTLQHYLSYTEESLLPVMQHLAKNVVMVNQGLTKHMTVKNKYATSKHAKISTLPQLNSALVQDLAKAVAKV
quantity.kind: pIC50
One number for each entry, as −log10 of the molar value.

Would you please look over these solved cases?
{"columns": ["compound", "pIC50"],
 "data": [
  ["CC(=O)Nc1ccc(C(=O)c2sc(Nc3ccc(N4CCN(C(C)C)CC4)cc3)nc2N)cc1 [Example 45]", 5.25],
  ["CN1CCN(c2ccc(Nc3nc(N)c(C(=O)c4ccc5c(c4)OCCCO5)s3)cc2)CC1 [Example 29]", 4.80],
  ["CN1CCN(c2ccc(Nc3nc(N)c(C(=O)c4ccc5oc6ccccc6c5c4)s3)cc2)CC1 [Example 34]", 4.93],
  ["COc1cccc(C(=O)c2sc(Nc3ccc(N4CCN(C)CC4)cc3)nc2N)c1 [Example 36]", 5.68],
  ["CCN(CC)c1ccc(C(=O)c2sc(Nc3ccc(N4CCN(C)CC4)cc3)nc2N)cc1 [Example 33]", 5.21],
  ["CN1CCN(c2ccc(Nc3nc(N)c(C(=O)c4ccc(N5CCCC5)c([N+](=O)[O-])c4)s3)cc2)CC1 [Example 58]", 5.41],
  ["COc1cccc(C(=O)c2sc(Nc3ccc(N4CCN(C(C)C)CC4)cc3)nc2N)c1 [Example 43]", 5.72],
  ["CN1CCN(c2ccc(Nc3nc(N)c(C(=O)c4cccc([N+](=O)[O-])c4)s3)cc2)CC1 [Example 31]", 6.30],
  ["Nc1nc(Nc2ccc(N3CCNCC3)cc2)sc1C(=O)c1cccc(F)c1 [Example 54]", 6.52],
  ["COc1cc(OC)cc(C(=O)c2sc(Nc3ccc(N4CCN(C(C)C)CC4)cc3)nc2N)c1 [Example 44]", 5.74]
]}

List reported pIC50 for each of these compounds:
1. COc1cc(OC)cc(C(=O)c2sc(Nc3ccc(N4CCN(C)CC4)c(F)c3)nc2N)c1 [Example 39]
2. Nc1nc(Nc2ccc(N3CCN(CCO)CC3)cc2)sc1C(=O)c1ccc2c(c1)OCCO2 [Example 49]
3. CN1CCN(c2ccc(Nc3nc(N)c(C(=O)c4ccc(N5CCOCC5)cc4)s3)cc2)CC1 [Example 28]
4. CN1CCN(c2ccc(Nc3nc(N)c(C(=O)c4ccc(N5CCCC5)cc4)s3)cc2)CC1 [Example 26]
5. Nc1nc(Nc2ccc(N3CCNCC3)cc2)sc1C(=O)c1ccc(N2CCCC2)cc1 [Example 55]

**A:**
1. 5.55
2. 5.68
3. 5.04
4. 5.05
5. 5.37

For each of the items listed, what is its pIC50?
1. COc1cccc(C(=O)c2sc(Nc3ccc(N4CCN(CCO)CC4)cc3)nc2N)c1 [Example 53]
2. COc1ccc(C(=O)c2sc(Nc3ccc(N4CCN(C)CC4)cc3)nc2N)cc1 [Example 32]

**A:**
5.64
5.41

Data credit: patent US6756374B2
